Where these numbers come from: patent US11401286B2

Molecular target: PDE4D7 (Homo sapiens (Human), UniProt Q08499)
Sequence (Q08499 other isoform, or with tags, fused parts or gaps): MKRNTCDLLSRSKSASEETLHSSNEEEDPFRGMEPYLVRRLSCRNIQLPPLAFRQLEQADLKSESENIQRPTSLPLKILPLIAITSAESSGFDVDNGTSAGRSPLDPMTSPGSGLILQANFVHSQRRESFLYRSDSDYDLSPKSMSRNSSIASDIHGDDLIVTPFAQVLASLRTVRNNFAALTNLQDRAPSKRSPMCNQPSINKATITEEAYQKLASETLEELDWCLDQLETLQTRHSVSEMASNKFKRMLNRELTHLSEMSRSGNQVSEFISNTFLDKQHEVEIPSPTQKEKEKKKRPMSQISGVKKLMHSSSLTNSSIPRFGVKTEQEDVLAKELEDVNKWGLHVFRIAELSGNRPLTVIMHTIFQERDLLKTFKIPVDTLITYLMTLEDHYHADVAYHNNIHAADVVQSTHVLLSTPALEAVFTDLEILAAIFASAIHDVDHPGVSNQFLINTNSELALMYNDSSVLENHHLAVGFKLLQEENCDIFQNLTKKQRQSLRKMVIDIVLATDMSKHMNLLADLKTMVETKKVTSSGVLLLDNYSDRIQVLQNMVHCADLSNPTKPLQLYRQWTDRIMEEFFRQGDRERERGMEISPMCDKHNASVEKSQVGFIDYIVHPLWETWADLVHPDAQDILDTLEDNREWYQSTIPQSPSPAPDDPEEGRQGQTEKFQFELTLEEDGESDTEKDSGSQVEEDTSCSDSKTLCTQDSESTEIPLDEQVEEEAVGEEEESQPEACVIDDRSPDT
Conditions: read-out: PDE4D7 IC50; PDE4D7 without asterisk
value.type: IC50

[[record]]
compound = "OCCc1ccc(Nc2nc(OC3CCCC3)nc3c2CCC3)cc1"
result = "> 1000 nM"

[[record]]
compound = "CCc1nc(Nc2ccc(CC(=O)O)cc2)nc(-c2cccc(Cl)c2)n1"
result = "> 1000 nM"


Now for the compound whose IC50 we want.
QUERY: Please look up its IC50: OCC(O)c1ccc(Nc2nc(-c3cccc(Cl)c3)nc3c2CCC3)cc1 (stereo not shown)
RESULT: > 1000 nM
